Test Method Notes: Drug level in rat plasma at 30 mg/kg, po after 4 hrs
Type: ADME, organism-based
Design: dose 30 mg/kg, route oral
Quick reference: concentration at 4 h of the listed items.
Measured Attribute: concentration at 4 h (ng/mL)

                                   molecule    measured_attribute  obs_value
0   C[C@H](c1cccnc1F)c1c(CCN(C)C)sc2ccccc12  concentration at 4 h          3
1  COc1ncccc1[C@@H](C)c1c(CCN(C)C)sc2ccccc12  concentration at 4 h       37.5
2     C[C@H](c1c(CCN(C)C)sc2ccccc12)n1cccn1  concentration at 4 h        0.6
3   C[C@@H](c1ccccn1)c1c(CCN(C)C)sc2ccccc12  concentration at 4 h        2.8

---

Quick reference: Ki of the listed items.
Assayed Target: Voltage-gated inwardly rectifying potassium channel KCNH2 (Homo sapiens)
Measured Attribute: Ki

                                    molecule  measured_attribute  obs_value
 0   C[C@@H](c1ccccn1)c1c(CCN(C)C)sc2ccccc12                  Ki     > 5 µM
 1  CC(c1nccs1)c1c(CCN(C)C)sc2ccccc12 (racemic)                  Ki     > 5 µM
 2    C[C@H](c1ccccn1)c1c(CCN(C)C)sc2ccccc12                  Ki     > 5 µM
 3        CNCCc1sc2ccccc2c1[C@@H](C)c1ccccn1                  Ki     > 5 µM
 4    C[C@@H](c1cncs1)c1c(CCN(C)C)sc2ccccc12                  Ki     > 5 µM
 5  Cc1ncccc1[C@@H](C)c1c(CCN(C)C)sc2ccccc12                  Ki     > 5 µM
 6  COc1cccc(C(C)c2c(CCN(C)C)sc3ccccc23)n1 (racemic)                  Ki     > 5 µM
 7  C[C@@H](c1ncccc1Cl)c1c(CCN(C)C)sc2ccccc12                  Ki     > 5 µM
 8  C[C@H](c1cccnc1Cl)c1c(CCN(C)C)sc2ccccc12                  Ki     > 5 µM
 9  C[C@@H](c1ncccc1F)c1c(CCN(C)C)sc2ccccc12                  Ki     > 5 µM
10  C[C@@H](c1ccccn1)c1c(CCN2CCC2)sc2ccccc12                  Ki     4.2 µM
11  C[C@@H](c1ccccn1)c1c(CCN2CCCC2)sc2ccccc12                  Ki     1.1 µM

---

Quick reference: IC50 of the listed items.
Assayed Target: Voltage-gated inwardly rectifying potassium channel KCNH2 (Homo sapiens, UniProt Q12809)
Sequence (Q12809 whole entry): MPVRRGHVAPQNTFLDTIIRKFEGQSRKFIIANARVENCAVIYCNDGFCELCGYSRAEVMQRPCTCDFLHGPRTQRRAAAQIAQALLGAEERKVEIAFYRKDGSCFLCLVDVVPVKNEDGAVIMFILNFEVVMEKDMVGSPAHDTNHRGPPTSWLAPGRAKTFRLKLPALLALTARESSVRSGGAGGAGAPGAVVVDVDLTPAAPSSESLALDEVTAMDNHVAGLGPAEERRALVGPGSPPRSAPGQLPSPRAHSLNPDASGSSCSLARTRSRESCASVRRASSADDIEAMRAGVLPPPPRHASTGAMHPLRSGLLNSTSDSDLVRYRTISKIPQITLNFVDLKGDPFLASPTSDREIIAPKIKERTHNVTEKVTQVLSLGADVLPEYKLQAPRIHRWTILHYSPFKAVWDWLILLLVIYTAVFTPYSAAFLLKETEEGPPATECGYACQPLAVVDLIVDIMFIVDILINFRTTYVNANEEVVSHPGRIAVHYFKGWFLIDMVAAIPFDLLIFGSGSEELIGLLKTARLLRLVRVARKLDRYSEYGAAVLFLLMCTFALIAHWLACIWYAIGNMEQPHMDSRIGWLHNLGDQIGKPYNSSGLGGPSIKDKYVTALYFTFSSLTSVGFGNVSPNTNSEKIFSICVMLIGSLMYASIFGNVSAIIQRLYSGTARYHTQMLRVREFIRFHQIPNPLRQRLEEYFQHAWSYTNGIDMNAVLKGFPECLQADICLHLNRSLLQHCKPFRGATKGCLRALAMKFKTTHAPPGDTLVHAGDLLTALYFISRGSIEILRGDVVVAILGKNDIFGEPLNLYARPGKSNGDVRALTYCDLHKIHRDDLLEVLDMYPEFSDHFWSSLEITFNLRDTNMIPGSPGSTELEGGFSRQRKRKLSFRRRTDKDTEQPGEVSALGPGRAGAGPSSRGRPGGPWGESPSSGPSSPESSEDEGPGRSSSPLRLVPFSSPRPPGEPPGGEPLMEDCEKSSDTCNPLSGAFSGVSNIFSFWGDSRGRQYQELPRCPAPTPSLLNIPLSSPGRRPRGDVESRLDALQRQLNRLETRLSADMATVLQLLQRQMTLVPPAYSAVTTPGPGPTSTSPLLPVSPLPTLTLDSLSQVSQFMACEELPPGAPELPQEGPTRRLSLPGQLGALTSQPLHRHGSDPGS
Test Method Notes: Inhibition of human ERG expressed in HEK cells assessed as blockade of potassium tail current by standard patch clamp analysis
Measured Attribute: IC50 (nM)

>>> df
                                   molecule  obs_value
0  C[C@H](c1cccnc1Cl)c1c(CCN(C)C)sc2ccccc12       1500
1  C[C@@H](c1ccccn1)c1c(CCN2CCC2)sc2ccccc12        730
2  COc1ncccc1[C@@H](C)c1c(CCN(C)C)sc2ccccc12       1800

---

Test Method Notes: Volume of distribution at steady state in human at 0.1 mg/kg by microdose study
Type: ADME, organism-based
Parameters: dose 0.1 mg/kg
Test Context: in vivo, read-out: Vdss
Measured Attribute: Vd (L/kg)

>>> df
                                  molecule  obs_value
0  C[C@H](c1cccnc1F)c1c(CCN(C)C)sc2ccccc12        5.6

---

Assayed Target: Voltage-gated inwardly rectifying potassium channel KCNH2 (Homo sapiens, UniProt Q12809)
pKi: −log10 of the molar value.
Quick reference: pKi of the listed items.
Measured Attribute: pKi

>>> print(df.to_string())
                                    molecule  obs_value
 0  CC(c1ccncc1)c1c(CCN(C)C)sc2ccccc12 (racemic)       5.74
 1  Cc1ccnc(C(C)c2c(CCN(C)C)sc3ccccc23)c1 (racemic)     < 5.30
 2     C[C@H](c1c(CCN(C)C)sc2ccccc12)n1cccn1     < 5.30
 3  CC(c1ccccn1)c1c(CCN(C)C)sc2ccccc12 (racemic)     < 5.30
 4  CC(c1cccc(F)n1)c1c(CCN(C)C)sc2ccccc12 (racemic)     < 5.30
 5  CC(c1c(CCN(C)C)sc2ccccc12)n1ccnc1 (racemic)     < 5.30
 6  COc1cccnc1[C@H](C)c1c(CCN(C)C)sc2ccccc12     < 5.30
 7  COc1ncccc1[C@@H](C)c1c(CCN(C)C)sc2ccccc12     < 5.30
 8  COc1ccc(C(C)c2c(CCN(C)C)sc3ccccc23)cn1 (racemic)     < 5.30
 9  C[C@@H](c1ccc(F)cn1)c1c(CCN(C)C)sc2ccccc12       5.60
10  Cc1ccc(C(C)c2c(CCN(C)C)sc3ccccc23)cn1 (racemic)     < 5.30

---

Quick reference: concentration at 4 h of the listed items.
Test Method Notes: Drug level in rat brain at 30 mg/kg, po after 4 hrs
Assay type: ADME, organism-based
Parameters: dose 30 mg/kg, route oral
Test Context: read-out: Drug uptake
Measured Attribute: concentration at 4 h (ng/g)

                                   molecule  obs_value
0   C[C@H](c1cccnc1F)c1c(CCN(C)C)sc2ccccc12         83
1  COc1ncccc1[C@@H](C)c1c(CCN(C)C)sc2ccccc12        347
2     C[C@H](c1c(CCN(C)C)sc2ccccc12)n1cccn1         11
3   C[C@@H](c1ccccn1)c1c(CCN(C)C)sc2ccccc12         23

---

Assayed Target: Muscarinic acetylcholine receptor M1 (Homo sapiens, UniProt P11229)
Sequence (P11229 whole entry): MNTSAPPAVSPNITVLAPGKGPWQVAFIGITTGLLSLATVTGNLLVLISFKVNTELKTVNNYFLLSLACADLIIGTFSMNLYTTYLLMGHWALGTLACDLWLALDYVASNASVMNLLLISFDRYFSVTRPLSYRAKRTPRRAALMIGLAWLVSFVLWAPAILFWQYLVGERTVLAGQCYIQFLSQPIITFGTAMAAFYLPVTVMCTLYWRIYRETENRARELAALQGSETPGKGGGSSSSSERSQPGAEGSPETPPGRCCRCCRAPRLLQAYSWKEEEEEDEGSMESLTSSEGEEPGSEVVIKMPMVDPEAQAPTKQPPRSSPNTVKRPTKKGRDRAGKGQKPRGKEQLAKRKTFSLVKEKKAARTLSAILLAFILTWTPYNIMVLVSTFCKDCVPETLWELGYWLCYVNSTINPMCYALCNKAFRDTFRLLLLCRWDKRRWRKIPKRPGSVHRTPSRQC
Test Method Notes: Displacement of [3H]N-methylscopolamine from human muscarinic M1 receptor expressed in CHO Flp-In cells after 90 mins by scintillation counting
Assay type: cell-based
Test Context: read-out: Ki
Measured Attribute: Ki

In [3]: df
Out[3]:
                                    compound  obs_value
 0  C[C@@H](c1ncccc1F)c1c(CCN(C)C)sc2ccccc12     2.2 µM
 1  COc1cccnc1[C@H](C)c1c(CCN(C)C)sc2ccccc12    > 10 µM
 2  CC(c1nccs1)c1c(CCN(C)C)sc2ccccc12 (racemic)    2.07 µM
 3    C[C@@H](c1cncs1)c1c(CCN(C)C)sc2ccccc12    > 10 µM
 4     C[C@H](c1c(CCN(C)C)sc2ccccc12)n1cccn1    > 10 µM
 5  C[C@@H](c1ccccn1)c1c(CCN2CCCC2)sc2ccccc12     5.8 µM
 6  C[C@H](c1cccnc1Cl)c1c(CCN(C)C)sc2ccccc12    > 10 µM
 7   C[C@H](c1cccnc1F)c1c(CCN(C)C)sc2ccccc12    > 10 µM
 8  Cc1ccnc(C(C)c2c(CCN(C)C)sc3ccccc23)c1 (racemic)    > 10 µM
 9   Cc1cccnc1[C@H](C)c1c(CCN(C)C)sc2ccccc12    > 10 µM
10  CC(c1cccc(F)n1)c1c(CCN(C)C)sc2ccccc12 (racemic)    > 10 µM
11  COc1cccc(C(C)c2c(CCN(C)C)sc3ccccc23)n1 (racemic)    > 10 µM
12  C[C@@H](c1ccc(F)cn1)c1c(CCN(C)C)sc2ccccc12    > 10 µM
13  Cc1ccc(C(C)c2c(CCN(C)C)sc3ccccc23)cn1 (racemic)    > 10 µM
14  COc1ccc(C(C)c2c(CCN(C)C)sc3ccccc23)cn1 (racemic)    > 10 µM
15  C[C@@H](c1ncccc1Cl)c1c(CCN(C)C)sc2ccccc12    > 10 µM
16    C[C@@H](c1cscn1)c1c(CCN(C)C)sc2ccccc12    4.76 µM
17  COc1ncccc1[C@@H](C)c1c(CCN(C)C)sc2ccccc12    > 10 µM
18  CC(c1ccccn1)c1c(CCN(C)C)sc2ccccc12 (racemic)     1.4 µM
19  C[C@@H](c1ccccn1)c1c(CCN2CCC2)sc2ccccc12    > 10 µM
20    C[C@H](c1ccccn1)c1c(CCN(C)C)sc2ccccc12    0.99 µM
21  CC(c1ccncc1)c1c(CCN(C)C)sc2ccccc12 (racemic)     5.6 µM
22  Cc1ncccc1[C@@H](C)c1c(CCN(C)C)sc2ccccc12    > 10 µM
